# measured.target: human FXR (NR1H4) (Homo sapiens (Human))
# Sequence (Q96RI1 whole entry, the tested form may be a part): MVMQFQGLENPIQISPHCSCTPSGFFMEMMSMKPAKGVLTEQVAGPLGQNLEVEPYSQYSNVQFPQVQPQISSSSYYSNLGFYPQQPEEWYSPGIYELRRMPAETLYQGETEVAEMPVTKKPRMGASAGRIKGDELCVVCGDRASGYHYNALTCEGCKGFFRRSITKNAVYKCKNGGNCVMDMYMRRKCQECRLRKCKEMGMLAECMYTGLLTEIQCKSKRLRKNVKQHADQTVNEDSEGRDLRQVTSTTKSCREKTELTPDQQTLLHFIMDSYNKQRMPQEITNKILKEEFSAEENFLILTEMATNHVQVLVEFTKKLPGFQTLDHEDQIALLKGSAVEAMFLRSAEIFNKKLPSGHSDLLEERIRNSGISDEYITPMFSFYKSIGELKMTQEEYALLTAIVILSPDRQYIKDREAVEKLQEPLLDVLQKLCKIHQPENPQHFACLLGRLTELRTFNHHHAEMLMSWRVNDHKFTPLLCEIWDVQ
# assay: Human FXR (NR1H4) Assay (Gal4 promoter driven luciferase reporter, Indigo Bioscience kit);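 further: 100% equals the efficacy of CDCA; efficacy normalized to CDCA set as 100%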
# Assay type: cell-based
# condition: read-out: Efficacy (%)
readout: Emax (%)
The reply should be a number in %, with the unit left off.

Qu. // fetch human FXR (NR1H4) (Homo sapiens (Human)) Emax for CC[C@H]1[C@@H](O)[C@@H]2[C@H](CC[C@]3(C)[C@@H]([C@H](C)COC(=O)NS(=O)(=O)c4ccc(-c5ncco5)nc4)CC[C@@H]23)[C@@]2(C)CC[C@@H](O)C[C@@H]12 [Example 44-o]
Ans. 292

Qu. Reported Emax for human FXR (NR1H4) (Homo sapiens (Human)), given CC[C@H]1[C@@H](O)[C@@H]2[C@H](CC[C@]3(C)[C@@H]([C@H](C)CCOC(=O)N4CCC(CO)CC4)CC[C@@H]23)[C@@]2(C)CC[C@@H](O)C[C@@H]12 [Example 202] ?
Ans. 393

Qu. Find Emax (human FXR (NR1H4) (Homo sapiens (Human))) for the entry CC[C@H]1[C@@H](O)[C@@H]2[C@H](CC[C@]3(C)[C@@H]([C@H](C)COC(=O)NC4CCCCC4)CC[C@@H]23)[C@@]2(C)CC[C@@H](O)C[C@@H]12 [Example 199]
Ans. 14

Qu. Quick check: Emax on human FXR (NR1H4) (Homo sapiens (Human)), item CC[C@H]1[C@@H](O)[C@@H]2[C@H](CC[C@]3(C)[C@@H]([C@H](C)CCOC(=O)NCCc4cccs4)CC[C@@H]23)[C@@]2(C)CC[C@@H](O)C[C@@H]12 [Example 143] ?
Ans. 202

Qu. Lab request: please report Emax under test system human FXR (NR1H4) (Homo sapiens (Human)) for CC[C@H]1[C@@H](O)[C@@H]2[C@H](CC[C@]3(C)[C@@H]([C@H](C)CCOC(=O)NS(=O)(=O)c4ccc(F)cc4)CC[C@@H]23)[C@@]2(C)CC[C@@H](O)C[C@@H]12 [Example 46]
Ans. 267

Qu. Query the reported Emax for human FXR (NR1H4) (Homo sapiens (Human)); item: CC[C@H]1[C@@H](O)[C@@H]2[C@H](CC[C@]3(C)[C@@H]([C@H](C)CCOC(=O)NS(=O)(=O)c4cnn(C)c4)CC[C@@H]23)[C@@]2(C)CC[C@@H](O)C[C@@H]12 [Example 82]
Ans. 294

Qu. Param readout = Emax; param system = human FXR (NR1H4) (Homo sapiens (Human)); param query = CC[C@H]1[C@@H](O)[C@@H]2[C@H](CC[C@]3(C)[C@@H]([C@H](C)CCOC(=O)N(C)C)CC[C@@H]23)[C@@]2(C)CC[C@@H](O)C[C@@H]12 [Example 129] ; response: value
Ans. 323

Qu. What Emax appears in the records for this compound with human FXR (NR1H4) (Homo sapiens (Human))? CC[C@H]1[C@@H](O)[C@@H]2[C@H](CC[C@]3(C)[C@@H]([C@H](C)CCOC(=O)NS(=O)(=O)c4ccc(OC)cc4)CC[C@@H]23)[C@@]2(C)CC[C@@H](O)C[C@@H]12 [Example 52]
Ans. 226

Qu. Query the reported Emax for human FXR (NR1H4) (Homo sapiens (Human)); item: CC[C@H]1[C@@H](O)[C@@H]2[C@H](CC[C@]3(C)[C@@H]([C@H](C)CCCOC(=O)NS(=O)(=O)c4ccc5ccccc5c4)CC[C@@H]23)[C@@]2(C)CC[C@@H](O)C[C@@H]12 [Example 115]
Ans. 376

Qu. Find Emax (human FXR (NR1H4) (Homo sapiens (Human))) for the entry CC[C@H]1[C@@H](O)[C@@H]2[C@H](CC[C@]3(C)[C@@H]([C@H](C)CCCOC(=O)NS(=O)(=O)c4cccc(C(C)(C)C)c4)CC[C@@H]23)[C@@]2(C)CC[C@@H](O)C[C@@H]12 [Example 112]
Ans. 123

Qu. # get_value(readout= Emax, system= human FXR (NR1H4) (Homo sapiens (Human))) for CC[C@H]1[C@@H](O)[C@@H]2[C@H](CC[C@]3(C)[C@@H]([C@H](C)CCOC(=O)NCc4ccc(C(C)(C)C)cc4)CC[C@@H]23)[C@@]2(C)CC[C@@H](O)C[C@@H]12 [Example 189]
Ans. 215

Qu. Hello, I am looking for reported Emax with human FXR (NR1H4) (Homo sapiens (Human)) for CC[C@H]1[C@@H](O)[C@@H]2[C@H](CC[C@]3(C)[C@@H]([C@H](C)CCOC(=O)Nc4ccc(F)cc4Cl)CC[C@@H]23)[C@@]2(C)CC[C@@H](O)C[C@@H]12 [Example 193] . Could you help?
Ans. 179

Qu. For human FXR (NR1H4) (Homo sapiens (Human)), provide Emax of CC[C@H]1[C@@H](O)[C@@H]2[C@H](CC[C@]3(C)[C@@H]([C@H](C)CCOC(=O)N4C[C@@H](C)O[C@@H](C)C4)CC[C@@H]23)[C@@]2(C)CC[C@@H](O)C[C@@H]12 [Example 182] please.
Ans. 419

Qu. Which Emax is reported with human FXR (NR1H4) (Homo sapiens (Human)) for this entry: CC[C@H]1[C@@H](O)[C@@H]2[C@H](CC[C@]3(C)[C@@H]([C@H](C)CCOC(=O)NS(=O)(=O)c4ccccc4C(C)(C)C)CC[C@@H]23)[C@@]2(C)CC[C@@H](O)C[C@@H]12 [Example 85] ?
Ans. 240

Qu. Write down the reported Emax of CC[C@H]1[C@@H](O)[C@@H]2[C@H](CC[C@]3(C)[C@@H]([C@H](C)COC(=O)NS(=O)(=O)c4ccc(-c5ccc(C(C)(C)C)cc5)cc4)CC[C@@H]23)[C@@]2(C)CC[C@@H](O)C[C@@H]12 [Example 34] , test system: human FXR (NR1H4) (Homo sapiens (Human)).
Ans. 186

Qu. Form: Entry = CC[C@H]1[C@@H](O)[C@@H]2[C@H](CC[C@]3(C)[C@@H]([C@H](C)CCOC(=O)N4CC[C@H](O)C4)CC[C@@H]23)[C@@]2(C)CC[C@@H](O)C[C@@H]12 [Example 181] | System = human FXR (NR1H4) (Homo sapiens (Human)) | Emax = ____
Ans. 382

Qu. Look up Emax with human FXR (NR1H4) (Homo sapiens (Human)) for this compound: CC[C@H]1[C@@H](O)[C@@H]2[C@H](CC[C@]3(C)[C@@H]([C@H](C)COC(=O)NS(=O)(=O)c4ccc5ccccc5c4)CC[C@@H]23)[C@@]2(C)CC[C@@H](O)C[C@@H]12 [Example 12]
Ans. 217

Qu. Quick check: Emax on human FXR (NR1H4) (Homo sapiens (Human)), item CC[C@H]1[C@@H](O)[C@@H]2[C@H](CC[C@]3(C)[C@@H]([C@H](C)CCOC(=O)NCC(=O)O)CC[C@@H]23)[C@@]2(C)CC[C@@H](O)C[C@@H]12 [Example 157] ?
Ans. 178

The reported numbers originate from patent US10457703B2.
